Tested on: Major prion protein (Homo sapiens) (UniProt P04156)
Experimental details: reduces human prion protein on the cell surface, primary screen, cell-based, TR-FRET (AID 720596); also: 0% = median of the test wells and 100% = reference compound wells
Condition notes: cell surface PrPC, TR-FRET read-out; at 13.8 µM; hits give high values
Hit rate of the full screen: of about 370,000 compounds, about 1,600 (0.43%) were called active. This is one part of a sample in which actives are shown more often than they occur.
I'd be grateful if you could share measured inhibition for these entries.
One number for each entry, in %.

As a guide, the following entries are already answered.
In [3]: df
Out[3]:
                                   molecule  measured_value
0  CCCCC(CC)CNCc1cccn1CCN1CCOCC1 (configuration not stated)           -0.03
1  CCOC(=O)C1CCN(C(=O)COc2cc(C)c(Br)c(C)c2)CC1            0.57
2  COCC1CCN(C(=O)C2CCC(=O)N(Cc3cccc(C(F)(F)F)c3)C2)CC1 (configuration not stated)            9.85

Give inhibition for all molecules that follow.
1. Cc1ccc(Sc2ccc(NC(=O)c3ccc(F)cc3)cc2C#N)cc1
2. COC(=O)Cc1[nH]n(-c2nc3ccccc3s2)c(=O)c1C(C)=Nc1ccc(OC)cc1
3. O=C(Nc1c(Cl)c(C2CC2)nn1-c1ccccc1)C(Cl)(Cl)Cl
4. CCSc1nc(C)c(CCOc2cccc(C)c2)c(=O)[nH]1
5. Cc1oc(-c2ccccc2Cl)[n+]([O-])c1C
6. CC(C)C(=O)N1CCC2(CC1)Oc1ccc(F)cc1C(=O)C21CC(c2ccccc2)=NO1 (configuration not stated)
7. O=C(N/N=C/c1c(O)n(C2CC2)c(=S)[nH]c1=O)c1ccccc1
8. Cc1cc2cc(CNC(=O)c3ccc(S(=O)(=O)N4CCOCC4)cc3)ccc2[nH]1

Result ::
-3.85
32.6
1.29
4.37
-0.12
-0.07
-3.29
27.4

Your task in this section: give inhibition for each listed record.
1. CC1CC(=O)Nc2ccccc2N1C(=O)COc1ccc2cc(Br)ccc2c1 (configuration not stated)
2. O=C(NC(Nc1nc2ccc([N+](=O)[O-])cc2s1)(C(F)(F)F)C(F)(F)F)c1ccccc1
3. COc1ccc(/C=C/CN2CCCC(C(=O)c3cc(F)ccc3F)C2)cc1 (configuration not stated)
4. COc1cccc(Cn2cc(COC(=O)Nc3ccc(F)cc3)nn2)c1

Result ::
1. -0.09
2. 43.8
3. 3.26
4. 6.34

Each molecule below has a reported value. Please supply its inhibition.
1. CCNC(=O)Nc1ccc(S(=O)(=O)Nc2cnc(C)nc2C)cc1
2. COc1cccc(NC(=S)C(C#N)=C2N(C)c3ccccc3N2C)c1
3. COC(=O)c1sccc1NC(=O)CC1C(=O)NCCN1C(=O)Nc1ccc(F)cc1F (configuration not stated)
4. COC(=O)[C@]12C[C@H](CC(=O)NCc3ccc(C)o3)C(=O)N(CCC3=CCCCC3)C1=C[C@H](C(C)(C)C)O[C@@H]2C
5. O=C(c1ccc(-c2ccccc2)cc1)C1CCCN(C(=O)c2cncs2)C1 (configuration not stated)
6. CSc1nccc(NC(=O)c2ccc(C(C)(C)C)cc2)n1
7. CSc1ncccc1C(=O)NCc1ccccc1Cl

Result ::
[-5.43, -1.55, 4.59, 7.81, 6.46, 29.4, -4.63]

All figures here come from PubChem BioAssay AID720596.
